Provenance of the data: patent EP4371976B1

assay: RNA encapsulation efficiency of LNPs by Quant-IT Ribogreen; type: physicochemical; details: Table 8; LNP 50:10:38.5:1.5, luciferase mRNA
Collected Encaps. efficiency values appear next to each entry.
# answer = value followed by unit

compound="CCCCCCCC/C=C\\CCCCCCCCOC(=O)CCSCCC(NC(=O)CCCCCCC/C=C\\CCCCCCCC)C(=O)NCCCN1CCOCC1 (stereo not shown)" property="Encaps. efficiency" measured=81.6%
compound="CCCCCCCCCCCCOC(=O)CCSCC(CC(=O)NCCCn1ccnc1)C(=O)OC(CCCCCCCC)CCCCCCCC (stereo not shown)" property="Encaps. efficiency" measured=59.92%
compound="CCCCCCCCCCCCCOC(=O)CCSCC(CC(=O)NCCCN1CCOCC1)C(=O)OC(CCCCCCCC)CCCCCCCC (stereo not shown)" property="Encaps. efficiency" measured=43.65%
compound="CCCCCCCCCCCCC(CCCCCCCCCC)COC(=O)CCSCCC(NC(=O)C(CCCCCCCC)CCCCCCCCCC)C(=O)NCC1CCN(C)CC1 (stereo not shown)" property="Encaps. efficiency" measured=52.01%

Identify Encaps. efficiency associated with the compound CCCCCCCC/C=C\CCCCCCCC(=O)NC(CCSCCC(=O)OCC(CCCCCCCCCC)CCCCCCCCCCCC)C(=O)NCCCN1CCOCC1 (stereo not shown)
57.26%

Identify Encaps. efficiency associated with the compound CCCCCCCCOC(=O)CCSCC(CC(=O)NCCCN1CCOCC1)C(=O)OC(CCCCCCCC)CCCCCCCC (stereo not shown)
29.06%

Identify Encaps. efficiency associated with the compound CCCCCCCCCCC(CCCCCCCC)C(=O)NC(CCSCCC(=O)OCCCCCCCC(C)C)C(=O)NC1CCN(C)CC1 (stereo not shown)
50.6%

====

experiment: Size distribution, polydispersity and Z-potential of LNPs by dynamic light scattering (Malvern Zetasizer); assay type: physicochemical; conditions: LNPs, standard formulation 50:10:38.5:1.5; DLS
Criterion: P.D.I. meeting or surpassing 0.2. Met: y. Not met: n.

Some solved entries appear below for comparison.
compound="CCCCCCCC/C=C\\CCCCCCCC(=O)NC(CCSCCC(=O)OCC(CCCCCCCCCC)CCCCCCCCCCCC)C(=O)NCCCN1CCOCC1 (stereo not shown)" classification=n
compound="CCCCCCCCC(CCCCCC)C(=O)NC(CCSCCC(=O)OCCCCCC(C)C)C(=O)NCC1CCN(C)CC1 (stereo not shown)" classification=n
compound="CCCCCCCC/C=C\\CCCCCCCC(=O)NC(CCSCCC(=O)OCC(CCCCCCCCCC)CCCCCCCCCCCC)C(=O)NC1CCN(C)CC1 (stereo not shown)" classification=n
compound="CCCCCCCCCCC(CCCCCCCC)C(=O)NC(CCSCCC(=O)OCC(CC)CCCC)C(=O)NCC1CCN(C)CC1 (stereo not shown)" classification=n

Shift focus to the following entry.
Exam item: decide whether the reported P.D.I. for CCCCCCCC#CCOC(=O)CCSCCC(NC(=O)C(CCCCCC)CCCCCCCC)C(=O)NCCN1CCOCC1 (stereo not shown) is at least 0.2.
y

====

test: Size distribution, polydispersity and Z-potential of LNPs by dynamic light scattering (Malvern Zetasizer); type: physicochemical; settings: LNPs, standard formulation 50:10:38.5:1.5; DLS
Property: Particle size/ Ø (nm)
Your answer should be a plain number; it is taken to be in nm.

compound="CCCCCCCCC(CCCCCC)C(=O)NC(CCSCCC(=O)OCC(CC)CCCC)C(=O)NCCCN1CCCC1 (centres unmarked)" measured=175
compound="CCCCCCCCC(CCCCCCCC)OC(=O)C(CCSCCC(=O)OCC(CC)CCCC)C(=O)NCCCn1ccnc1 (centres unmarked)" measured=124.1
compound="CCCCCCCC/C=C\\CCCCCCCCOC(=O)CCSCCC(NC(=O)C(CCCCCCCC)CCCCCCCCCC)C(=O)NCC1CCN(C)CC1 (centres unmarked)" measured=169.3
compound="CCCCCCCCCCCCCOC(=O)CCSCCC(NC(=O)C(CCCCCCCC)CCCCCCCCCC)C(=O)NC1CCN(C)CC1 (centres unmarked)" measured=156.7
compound="CCCCCCCCCCCCCCCCOC(=O)CCSCCC(NC(=O)C(CCCCCC)CCCCCCCC)C(=O)NCCCN1CCOCC1 (centres unmarked)" measured=266.4
compound="CCCCCCCC#CCOC(=O)CCSCCC(NC(=O)C(CCCCCC)CCCCCCCC)C(=O)NCC1CCN(C)CC1 (centres unmarked)" measured=168.6
compound="CCCCCCCCCCCCOC(=O)CCSCCC(C(=O)NC1CCN(C)CC1)C(=O)OC(CCCCCCCC)CCCCCCCC (centres unmarked)" measured=167.4
compound="CCCCCCCCCCCCCCCCOC(=O)CCSCCC(NC(=O)C(CCCCCC)CCCCCCCC)C(=O)NCCCn1ccnc1 (centres unmarked)" measured=188.6
compound="CCCCCCCCCCCCC(CCCCCCCCCC)COC(=O)CCSCC(CC(=O)NC1CCN(C)CC1)C(=O)OCC(CCCCCC)CCCCCCCC (centres unmarked)" measured=165.1
compound="CCCCCCCC#CCOC(=O)CCSCCC(NC(=O)C(CCCCCC)CCCCCCCC)C(=O)NCCN1CCOCC1 (centres unmarked)" measured=168.1

Identify Particle size/ Ø (nm) associated with the compound CCCCCCCC#CCOC(=O)CCSCCC(NC(=O)C(CCCCCC)CCCCCCCC)C(=O)NCCN(CC)CC (centres unmarked)
149.1

Identify Particle size/ Ø (nm) associated with the compound CCCCCCCCCCCCCCCCOC(=O)CCSCCC(NC(=O)C(CCCCCC)CCCCCCCC)C(=O)NCCCN(CCO)CCO (centres unmarked)
259.7

Identify Particle size/ Ø (nm) associated with the compound CCCCCCCCCCC(CCCCCCCC)C(=O)NC(CCSCCC(=O)OCC(CCCCCC)CCCCCCCC)C(=O)NCC1CCN(C)CC1 (centres unmarked)
152.6

Identify Particle size/ Ø (nm) associated with the compound CCCCCCCCC(CCCCCCCC)OC(=O)C(CSCCC(=O)OCC(CC)CCCC)CC(=O)NCCCN1CCOCC1 (centres unmarked)
155.7

Identify Particle size/ Ø (nm) associated with the compound CCCCCCCCCCCCOC(=O)CCSCCC(NC(=O)C(CCCCCC)CCCCCCCC)C(=O)NCCN(CC)CC (centres unmarked)
146.7

====

assay: Size distribution, polydispersity and Z-potential of LNPs by dynamic light scattering (Malvern Zetasizer); assay type: physicochemical; settings: LNPs, standard formulation 50:10:38.5:1.5; DLS
Collected Z Potential (± D.E.) [mV] values appear next to each entry.
Your answer should be a plain number; it is taken to be in mV.

Field: example entries. Status: answers known.
compound="CCCCCCCCCCCCCCCCOC(=O)CCSCCC(NC(=O)C(CCCCCC)CCCCCCCC)C(=O)NC1CCN(C)CC1 (stereo not shown)" measure_unit=mV measured=-20.53
compound="CCCCCCCCCCC(CCCCCCCC)C(=O)NC(CCSCCC(=O)OCC(CC)CCCC)C(=O)NC1CCN(C)CC1 (stereo not shown)" measure_unit=mV measured=-5.71
compound="CCCCCCCCCCCCCCCCCC(=O)NC(CCSCCC(=O)OCCCCCCCCCCCCC)C(=O)NC1CCN(C)CC1 (stereo not shown)" measure_unit=mV measured=8.58
compound="CCCCCCCC/C=C\\CCCCCCCCOC(=O)CCSCCC(NC(=O)C(CCCCCC)CCCCCCCC)C(=O)NC1CCN(C)CC1 (stereo not shown)" measure_unit=mV measured=1.65
compound="CCCCCCCCCCCCCCCCOC(=O)CCSCCC(NC(=O)C(CCCCCC)CCCCCCCC)C(=O)NCCCN1CCOCC1 (stereo not shown)" measure_unit=mV measured=-22.79

Identify Z Potential (± D.E.) [mV] associated with the compound CCCCCCCC/C=C\CCCCCCCCOC(=O)CCSCCC(NC(=O)C(CCCCCC)CCCCCCCC)C(=O)NCCN(CC)CC (stereo not shown)
-5.88

Identify Z Potential (± D.E.) [mV] associated with the compound CCCCCCCCC(CCCCCC)C(=O)NC(CCSCCC(=O)OCC(CC)CCCC)C(=O)NCCN1CCN(C)CC1 (stereo not shown)
-6.47

====

Collected P.D.I. values appear next to each entry.
assay: Size distribution, polydispersity and Z-potential of LNPs by dynamic light scattering (Malvern Zetasizer); assay type: physicochemical; details: LNPs, standard formulation 50:10:38.5:1.5; DLS
I'd appreciate a reply containing only the number, no unit.

Field: example entries. Status: answers known.
compound="CCCCCCCCCCC(CCCCCCCC)C(=O)NC(CCSCCC(=O)OCCCCCC(C)C)C(=O)NCC1CCN(C)CC1 (centres unmarked)" measured=0.12
compound="CCCCCCCCCCCCCOC(=O)CCSCCC(NC(=O)C(CCCCCCCC)CCCCCCCCCC)C(=O)NC1CCN(C)CC1 (centres unmarked)" measured=0.14
compound="CCCCCCCC#CCOC(=O)CCSCCC(NC(=O)CCCCCCCCCCCCCCCCC)C(=O)NCCCN1CCOCC1 (centres unmarked)" measured=0.24

Next:
Identify P.D.I. associated with the compound CCCCCCCCCCCCCCOC(=O)CCSCCC(NC(=O)C(CCCCCC)CCCCCCCC)C(=O)NCCN(CC)CC (centres unmarked)
0.17
